- System: Coprococcus comes
- experiment-notes: growth AUC relative to DMSO control (median of replicates) (fraction); higher = more growth (less inhibition), active = hit call of the paper
- setup-conditions: 20 µM; 24 h
value-type: growth AUC
Give the figure only, with no unit attached.

The reported value for CNC(=O)Nc1nc2ccccc2s1 in terms of growth AUC is 1.01

For CC(C)(c1ccc(O)cc1)c1ccc(O)cc1 the compound record lists growth AUC as 1.01

growth AUC for CCOC(=O)C(C)N(C(=O)c1ccccc1)c1ccc(Cl)c(Cl)c1 (configuration not stated) is 0.971

Short answer for CC(C)(SC(=O)N1CCCCC1)c1ccccc1 : growth AUC was 0.998

Given item Cc1cc(C)c(C2=C(O)C3(CCCC3)OC2=O)c(C)c1 , the value recorded as its growth AUC is 0.981

growth AUC measured on NC(=S)Nc1cccc2ccccc12 = 0.974

Recorded growth AUC (compound CCOc1ccc(NC(=O)OC(C)C)cc1OCC ): 0.942

For this compound ( O=C1NCC[n+]2ccccc21.[Br-] ), measured growth AUC is 1.02

The recorded growth AUC for CCOC(=O)c1ccc(O)cc1 is 1

Reported growth AUC ( c1ccc(Nc2ccccc2)cc1 ) = 0.97

Form: compound = COC(=O)c1ccccc1S(=O)(=O)NC(=O)Nc1nc(OC(F)F)cc(OC(F)F)n1 ; growth AUC = 1

Kindly note the recorded growth AUC for CCCCOC(=O)[C@@H](C)Oc1ccc(Oc2ccc(C(F)(F)F)cn2)cc1 , which is 0.961

CCCC(C)(C)C(=O)Nc1ccc(Cl)cc1 has a reported growth AUC of 0.978

Briefly, growth AUC measured for CCOC(=O)c1cnn(C)c1S(=O)(=O)NC(=O)Nc1nc(OC)cc(OC)n1 : 0.991

Briefly, growth AUC measured for COc1nc(C)nc(NC(=O)NS(=O)(=O)c2ccccc2OCCCl)n1 : 1.02

So for CC(C)OC(=O)c1cc(C(=O)OC(C)C)cc([N+](=O)[O-])c1 , the logged growth AUC turned out to be 0.97

// field: growth AUC; key: FC(F)(F)C(=NOCC1OCCO1)c1ccc(Cl)cc1 ; value = 1.02

* * *

- Test system: Bifidobacterium longum subsp. longum
- experiment-notes: growth AUC relative to DMSO control (median of replicates) (fraction); higher = more growth (less inhibition), active = hit call of the paper
- setup-conditions: 20 µM; 24 h
Label Met when growth AUC is at or above 1; otherwise label Not met.

Say whether ClC(COCC(Cl)C(Cl)(Cl)Cl)C(Cl)(Cl)Cl (stereo unspecified) shows growth AUC of 1 or more.
Not met

Answer whether growth AUC of O=C1NCCN1 is greater than or equal to 1.
Met

Has Cc1cccc(C)c1N(C(=O)CCl)C1CCOC1=O (stereo unspecified) a recorded growth AUC greater than or equal to 1?
Met

Does C=C1C[C@]23C[C@@]1(O)CC[C@H]2[C@@]12C=C[C@H](O)[C@@](C)(C(=O)O1)[C@H]2[C@@H]3C(=O)O have a reported growth AUC of at least 1?
Not met

Check this compound for growth AUC at or above 1: CO/N=C(/C(=O)O)c1ccccc1CO/N=C(\C)c1cccc(C(F)(F)F)c1
Not met

// inclusive: growth AUC at least 1? input: CCCCN(C)C(=O)Nc1ccc(Cl)c(Cl)c1
Not met

Exam item: decide whether the reported growth AUC for C=CCc1ccc(OC)c(OC)c1 is at least 1.
Met

Reported growth AUC at or above 1? O.O.O=[N+]([O-])c1ccc([O-])cc1.[Na+]
Met

Given NC1=C(Cl)C(=O)c2ccccc2C1=O , state whether its growth AUC is at least 1.
Not met

Does growth AUC meet or surpass 1 for CCOC(=O)c1cnn(C)c1S(=O)(=O)NC(=O)Nc1nc(OC)cc(OC)n1 ?
Met

State whether the measured growth AUC reaches 1, counting equality as reaching it, for CCCCCCCCSCCO
Met

Assess whether reported growth AUC for CCCCCCCC/C=C\CCCCCCCC(N)=O sits at 1 or higher.
Not met

Threshold query (growth AUC >= 1) on CC(C)(C)[C@@H](O)[C@@H](Cc1ccc(Cl)cc1)n1cncn1 (mixture of isomers)
Met

Check the entry COc1ccccc1C(=O)NS(=O)(=O)c1ccc(C(=O)NC2CC2)cc1 : does growth AUC equal or exceed 1?
Not met

Given the entry COc1ccc(NC(=O)N(C)C)cc1Cl , answer whether its growth AUC meets or surpasses 1.
Met

Could you tell me if the measured growth AUC of CCOC(=O)/C(Cl)=C/c1cc(N2C(=O)C3=C(CCCC3)C2=O)ccc1Cl reaches 1 or more?
Not met

Exam item: decide whether the reported growth AUC for Cc1[nH]oc(=O)c1N=Nc1ccccc1Cl is at least 1.
Met

I'd appreciate it if you could say whether Oc1ccccc1O has growth AUC at least equal to 1.
Not met

Hi team, for Cc1cc(C)c(C2=C(O)C3(CCCC3)OC2=O)c(C)c1 , is the recorded growth AUC at or above 1?
Met

Check the entry CCOC(=O)C1=NN(c2ccc(Cl)cc2Cl)C(C)(C(=O)OCC)C1 (stereo unspecified) : does growth AUC equal or exceed 1?
Not met
